Each recorded value in this set is attributed to the supplement of paper PMC7877785.

measurementProtocol: self-splicing fitness, log relative to wild type (ln ratio); higher = more splicing; Tetrahymena group I intron in knt gene, E. coli kanamycin selection, DiMSum; sequences stand for … in CUCUCU…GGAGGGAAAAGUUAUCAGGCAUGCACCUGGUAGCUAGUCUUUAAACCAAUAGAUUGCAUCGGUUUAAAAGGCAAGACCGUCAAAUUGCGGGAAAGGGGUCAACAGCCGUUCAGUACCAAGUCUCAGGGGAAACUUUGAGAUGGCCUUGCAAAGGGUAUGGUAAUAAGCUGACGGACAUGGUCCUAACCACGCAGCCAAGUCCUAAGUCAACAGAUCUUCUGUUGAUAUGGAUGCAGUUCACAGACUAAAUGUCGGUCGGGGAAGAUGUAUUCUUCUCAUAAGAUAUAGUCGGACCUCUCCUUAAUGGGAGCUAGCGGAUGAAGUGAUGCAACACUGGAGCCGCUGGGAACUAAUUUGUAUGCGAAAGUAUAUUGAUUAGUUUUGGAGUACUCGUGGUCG;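 further: selection with 25 µg/mL kanamycin versus none on LB agar overnight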
appliedConditions: 37 °C
endpointLabel: self-splicing fitness (ln)

Input: // returns reported self-splicing fitness (ln) for input ACCAAGCAAUAUUACGUAUG
Output: -2.53

Input: Entry under review: GACAAGCAAUAUUACGUUCA . Reported self-splicing fitness (ln)?
Output: -0.263

Input: Which self-splicing fitness (ln) value belongs to AGAUAGCAAUAUUACGGGCG ?
Output: 0.433

Input: # input sequence: CCGAAGCAAUAUUACGCGAA ; wanted: its self-splicing fitness (ln)
Output: -2.24

Input: Query: self-splicing fitness (ln); subject: GCUGAGCAAUAUUACGCAUU
Output: -1.63

Input: Entry UAAGAGCAAUAUUACGAAAG has what self-splicing fitness (ln)?
Output: -1.92

Input: Dear colleague, I am looking for the recorded self-splicing fitness (ln) of the following sequence: ACGUAGCAAUAUUACGAACA
Output: -0.252

Input: // self-splicing fitness (ln) lookup, key: GAAUAGCAAUAUUACGUUGC
Output: -2.69

Input: Consider the sequence shown here: UCUUAGCAAUAUUACGACGC What is its recorded self-splicing fitness (ln)?
Output: -1.02

Input: Name the recorded self-splicing fitness (ln) for AGUUAGCAAUAUUACGGACC .
Output: -0.279

Input: If you can, please state the reported self-splicing fitness (ln) value of GCCGAGCAAUAUUACGAGCU .
Output: -3.15

Input: Find the recorded self-splicing fitness (ln) belonging to ACGAAGCAAUAUUACGUUGG and report it.
Output: -2.38

Input: Item AUAUAGCAAUAUUACGCAUA has what recorded self-splicing fitness (ln)?
Output: -0.946

Input: // self-splicing fitness (ln) lookup, key: CACUAGCAAUAUUACGGCCC
Output: -1.71

Input: Entry GUUAAGCAAUAUUACGACAC : reported self-splicing fitness (ln) = ?
Output: 0.479

Input: What value of self-splicing fitness (ln) has been reported for the following sequence? UUUAAGCAAUAUUACGCACG
Output: -0.685

Input: Which self-splicing fitness (ln) is listed for AUAGAGCAAUAUUACGUGAC ?
Output: -1.6

Input: Which self-splicing fitness (ln) value is on record for ACACAGCAAUAUUACGUGUC ?
Output: -3.69

Input: # get_value(readout='self-splicing fitness (ln)', item= UUCUAGCAAUAUUACGCGUU )
Output: -1.9

Input: Which self-splicing fitness (ln) reading was recorded for the sequence GAUAAGCAAUAUUACGUACC ?
Output: -0.641

Input: # query: self-splicing fitness (ln) of entry AUGAAGCAAUAUUACGUCGG
Output: -0.498

Input: Give the measured self-splicing fitness (ln) of UAUAAGCAAUAUUACGCAGG .
Output: -0.616

Input: For the sequence shown here, CUAAAGCAAUAUUACGACUC , give the reported self-splicing fitness (ln).
Output: -2.38

Input: Which self-splicing fitness (ln) value belongs to CAGUAGCAAUAUUACGCGCA ?
Output: -0.617

Input: Recorded self-splicing fitness (ln) for GUCCAGCAAUAUUACGGCAU , please?
Output: -0.171

Input: Would you mind telling me what self-splicing fitness (ln) value was observed for GUUCAGCAAUAUUACGGAGC ?
Output: -1.53

Input: Fill blank: measured self-splicing fitness (ln) of the sequence GUUGAGCAAUAUUACGGCGU is ____.
Output: -0.302

Input: Tell me the measured self-splicing fitness (ln) of UUGGAGCAAUAUUACGGGGC , please.
Output: -3.26

Input: Would you mind telling me what self-splicing fitness (ln) value was observed for UAGUAGCAAUAUUACGUCCU ?
Output: -0.272

Input: Returns the measured self-splicing fitness (ln) for the input sequence. Input: ACCAAGCAAUAUUACGUUUC
Output: -2.55

Input: Suppose we examine the sequence CUACAGCAAUAUUACGGAUC ; what self-splicing fitness (ln) value has been reported?
Output: -2.51

Input: self-splicing fitness (ln) lookup needed for ACGUAGCAAUAUUACGCACC , thanks.
Output: -0.224

Input: Value lookup for self-splicing fitness (ln); key = AUGGAGCAAUAUUACGCUCU
Output: -1.45

Input: Consider the sequence shown here: AACGAGCAAUAUUACGCCUA What is its recorded self-splicing fitness (ln)?
Output: -1.08

* * *

measurementProtocol: self-splicing fitness, log relative to wild type (ln ratio); higher = more splicing; Tetrahymena group I intron in knt gene, E. coli kanamycin selection, DiMSum; sequences stand for … in CUCUCU…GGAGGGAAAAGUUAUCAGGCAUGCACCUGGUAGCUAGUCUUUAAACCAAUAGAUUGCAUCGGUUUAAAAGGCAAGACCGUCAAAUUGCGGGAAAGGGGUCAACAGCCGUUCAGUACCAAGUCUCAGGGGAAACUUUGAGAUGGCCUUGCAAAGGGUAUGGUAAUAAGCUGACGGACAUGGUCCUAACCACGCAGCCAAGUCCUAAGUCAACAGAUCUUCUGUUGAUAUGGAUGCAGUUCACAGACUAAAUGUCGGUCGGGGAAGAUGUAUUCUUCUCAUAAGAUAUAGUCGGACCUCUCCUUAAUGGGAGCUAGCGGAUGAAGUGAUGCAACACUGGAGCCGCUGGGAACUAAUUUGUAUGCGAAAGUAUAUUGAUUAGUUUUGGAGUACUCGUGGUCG
appliedConditions: 30 °C
endpointLabel: self-splicing fitness (ln)

Input: Consider the sequence CUCUAGCAAUAUUACGGCUA and give its measured self-splicing fitness (ln).
Output: -2.32

Input: Which self-splicing fitness (ln) value is on record for AGCGAGCAAUAUUACGGGAU ?
Output: -3.92

Input: # lookup: self-splicing fitness (ln) of GGACAGCAAUAUUACGUUGC
Output: -4.57

Input: // returns reported self-splicing fitness (ln) for input AUCUAGCAAUAUUACGGAAA
Output: -2.23

Input: Quick one: self-splicing fitness (ln) for UCCAAGCAAUAUUACGCUAG ?
Output: -3.67

Input: Look at this sequence and give its reported self-splicing fitness (ln). UUCUAGCAAUAUUACGCUCU
Output: -1.9

Input: Entry UCAUAGCAAUAUUACGCGCG has what self-splicing fitness (ln)?
Output: -0.405

Input: I would be grateful if you could share the reported self-splicing fitness (ln) for CGGGAGCAAUAUUACGUAUG .
Output: -3.99
